- TEST SYSTEM: CAMKK2 (human)
- EXPERIMENT NOTES: radiometric filter-binding kinase assay
- TEST CONTEXT: compound 0.1 µM
Overview of reported residual activity across a group of compounds:
Give just the numeric value; % need not be written.

COMPOUND	residual activity [%]
COc1ccc(N(C(=O)Nc2c(C)cccc2C)c2cc(Nc3ccc(N4CCN(C)CC4)cc3)ncn2)c(OC)c1	102

stdin: # assay system CAMKK2 (human): give residual activity of `CNc1nc(-c2ccc3c(N)n[nH]c3c2)cc(N2C[C@@H](C(=O)NC3CCCCC3)CC[C@H]2C)n1`
stdout: 123

stdin: # assay system CAMKK2 (human): give residual activity of `C=CC(=O)N1CCC[C@@H](n2nc(-c3ccc(Oc4ccccc4)cc3)c3c(N)ncnc32)C1`
stdout: 86

stdin: # assay system CAMKK2 (human): give residual activity of `O=C(O)c1ccc(-c2c[nH]c3ncc(-c4ccccc4)cc23)cc1C1CCCC1`
stdout: 11

stdin: # assay system CAMKK2 (human): give residual activity of `CN1CCN(CCOc2cc(OC3CCOCC3)c3c(Nc4c(Cl)ccc5c4OCO5)ncnc3c2)CC1`
stdout: 95

stdin: # assay system CAMKK2 (human): give residual activity of `NC1(c2ccc(-c3nc4ccn5c(=O)[nH]nc5c4cc3-c3ccccc3)cc2)CCC1`
stdout: 92

stdin: # assay system CAMKK2 (human): give residual activity of `Cc1cccc(-c2nn(C(=S)Nc3ccccc3)cc2-c2ccnc3ccccc23)n1`
stdout: 100

stdin: # assay system CAMKK2 (human): give residual activity of `Cc1ccc(-c2ccc3c(ccc4sc5c(c43)NC[C@@H](C)NC5=O)n2)cn1`
stdout: 107

----------
- TEST SYSTEM: UniProt O14757
- Sequence (O14757 whole entry, looked up): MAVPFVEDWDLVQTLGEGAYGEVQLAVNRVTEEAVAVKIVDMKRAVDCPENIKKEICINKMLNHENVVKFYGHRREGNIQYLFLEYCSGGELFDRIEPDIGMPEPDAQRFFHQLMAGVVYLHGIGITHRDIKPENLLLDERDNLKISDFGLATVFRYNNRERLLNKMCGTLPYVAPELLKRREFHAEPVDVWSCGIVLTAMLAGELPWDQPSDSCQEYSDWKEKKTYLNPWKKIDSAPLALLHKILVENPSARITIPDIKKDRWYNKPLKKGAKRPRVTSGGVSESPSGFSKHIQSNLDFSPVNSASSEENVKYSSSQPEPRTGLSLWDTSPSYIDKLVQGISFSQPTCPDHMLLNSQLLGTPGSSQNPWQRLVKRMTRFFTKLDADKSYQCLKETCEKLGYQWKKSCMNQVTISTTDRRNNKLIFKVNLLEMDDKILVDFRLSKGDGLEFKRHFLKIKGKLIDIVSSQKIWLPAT
- EXPERIMENT NOTES: radiometric filter-binding kinase assay
- TEST CONTEXT: compound 10.0 µM
EXPERIMENTAL ENDPOINT: residual activity (%)
Give just the numeric value; % need not be written.

stdin: # return recorded residual activity for input `COc1cc(C(=O)N2CCOCC2)c(F)cc1Nc1ncc(C(F)(F)F)c(NC2CC2)n1`
stdout: 25

stdin: # return recorded residual activity for input Nc1cccc2c1CN(C1CCC(=O)NC1=O)C2=O (stereo unspecified)
stdout: 82

----------
- TEST SYSTEM: MARK1 (human)
- EXPERIMENT NOTES: radiometric filter-binding kinase assay
- TEST CONTEXT: compound 1.0 µM
Overview of reported residual activity across a group of molecules:
Give just the numeric value; % need not be written.

Known residual activity results, listed for orientation:
MOLECULE	residual activity [%]
COc1cc2ncn(-c3cc(OCc4ccccc4S(C)(=O)=O)c(C#N)s3)c2cc1OC	33
COc1cc(O)c2c(c1)[C@H]1OC1C[C@H](O)[C@H](O)C(=O)/C=C\C[C@H](C)OC2=O (some centres not stated)	101
NC(=O)c1cc(-c2ccnc(NC3CCCCC3)c2)nc(N2CCNCC2)c1	94
Cc1ccc(=O)n(-c2ccccc2)c1	99

stdin: # assay system MARK1 (human): give residual activity of `CCCCCc1ccc(/C=C/[C@H](O)[C@@H](CO)NC)cc1`
stdout: 112

stdin: # assay system MARK1 (human): give residual activity of `CC(C)(C#N)c1ccc(N2C(=O)OCc3cnc4ccc(-c5cnc6ccccc6c5)cc4c32)cc1`
stdout: 96

stdin: # assay system MARK1 (human): give residual activity of `CCn1c(-c2nonc2N)nc2cncc(CNC3CCNCC3)c21`
stdout: 95

stdin: # assay system MARK1 (human): give residual activity of O=C(NOCC(O)CO)c1ccc(F)c(F)c1Nc1ccc(I)cc1Cl (configuration not stated)
stdout: 77

stdin: # assay system MARK1 (human): give residual activity of `c1ccc2c(-c3cnn4cc(-c5ccc(N6CCNCC6)cc5)cnc34)ccnc2c1`
stdout: 54

All figures here come from the kinase profiling compilation of Christmann-Franck et al. (2016).
